Molecular target: Human IL-17AF (Homo sapiens, UniProt Q16552+Q96PD4)
Sequence (Q16552 24-155): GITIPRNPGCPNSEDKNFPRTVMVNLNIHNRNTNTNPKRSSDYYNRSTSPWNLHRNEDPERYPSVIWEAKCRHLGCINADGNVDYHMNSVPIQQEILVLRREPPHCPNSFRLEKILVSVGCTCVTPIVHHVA
Sequence (Q96PD4 31-163): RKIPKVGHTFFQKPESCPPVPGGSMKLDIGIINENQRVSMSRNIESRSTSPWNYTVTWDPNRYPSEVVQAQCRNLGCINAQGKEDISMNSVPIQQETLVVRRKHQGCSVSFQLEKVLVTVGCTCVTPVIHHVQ
Assay: IL-17AF ELISA (competitive ELISA, IL-17AF/IL-17Ra receptor-ligand binding)
Conditions: human IL-17AF coated plate, human IL-17Ra, read-out: IC50, inhibitory activity of compounds on human IL-17AF
pIC50: −log10 of the molar value.
In this section, each of the compounds is paired with its reported pIC50.

Consider the worked cases shown below.
• CCn1nccc1C(=O)N[C@H](C(=O)Nc1ccc2c(c1)CNC(=O)Cc1n[nH]c(C)c1-2)C(C1CC1)C1CC1 = ≥ 7.00
• Cc1[nH]nc2c1-c1cnc(NC(=O)[C@@H](NC(=O)c3ccnn3C(C)C)C(C3CC3)C3CC3)cc1CN(C1CCC1)CC2 = 6.30 to 7.00

Item CCn1nccc1C(=O)N[C@H](C(=O)Nc1ccc2c(c1)CN(C)C(=O)Cc1n[nH]c(C)c1-2)C(C1CC1)C1CC1 has what recorded pIC50?
≥ 7.00

These measurements were taken from patent US20260258050A1.
